assay_notes: Pharmacokinetic parameters in preclinical species
Assay type: in vivo, rats
measurement_conditions: plasma; Rat (SD), IV, 5 mg/kg, mean of 3 animals; read-out: AUC24hr
property_name: AUC(0-t) (ng·h/mL)
Respond with the bare value in ng·h/mL.

Query string: For the compound Cc1cnc(CNC(=O)c2c(=O)c3ccc(N4CCCN(C)CC4)nc3n3c2sc2ccccc23)cn1 , give its measured AUC(0-t) value.
Result string: 26600

* * *

assay_notes: Toxicokinetics in rat toxicity study (IV infusion)
Type: in vivo
measurement_conditions: plasma; rat, 1 hour IV infusion, 20 mg/kg/dose, Female, Day 1 (first dose)
property_name: Cmax (ng/mL)
Respond with the bare value in ng/mL.

Query string: For the molecule Cc1cnc(CNC(=O)c2c(=O)c3ccc(N4CCCN(C)CC4)nc3n3c2sc2ccccc23)cn1 , give its measured Cmax value.
Result string: 4960

* * *

assay_notes: Pharmacokinetic parameters in preclinical species
Format: in vivo, dogs
measurement_conditions: plasma; Dog, IV, 5.8 mg/kg, mean of 3 animals
property_name: Cmax (µg/mL)
Respond with the bare value in µg/mL.

Query string: For the compound Cc1cnc(CNC(=O)c2c(=O)c3ccc(N4CCCN(C)CC4)nc3n3c2sc2ccccc23)cn1 , give its measured Cmax value.
Result string: 0.861

* * *

assay_notes: Pharmacokinetic parameters in preclinical species
Format: in vivo, dogs
measurement_conditions: plasma; Dog, IV, 5.8 mg/kg, mean of 3 animals; read-out: Vss
property_name: Vd (L/kg)
Respond with the bare value in L/kg.

Query string: For the compound Cc1cnc(CNC(=O)c2c(=O)c3ccc(N4CCCN(C)CC4)nc3n3c2sc2ccccc23)cn1 , give its measured Vd value.
Result string: 11.7

* * *

assay_notes: Toxicokinetics in rat toxicity study (IV infusion)
Format: in vivo
measurement_conditions: plasma; rat, 1 hour IV infusion, 10 mg/kg/dose, Male, Day 1 (first dose)
property_name: Tmax
Returns: string containing the number followed by the unit.

Query string: For the compound Cc1cnc(CNC(=O)c2c(=O)c3ccc(N4CCCN(C)CC4)nc3n3c2sc2ccccc23)cn1 , give its measured Tmax value.
Result string: 1 h

* * *

Test system: various cancer cell lines
assay_notes: Cell viability by Alamar Blue assay
Assay type: cell-based
measurement_conditions: PC-3, Prostate
property_name: pEC50
Hey, just a heads up that pEC50 is the negative log base 10 of the concentration in molar.

Query string: For the compound Cc1cnc(CNC(=O)c2c(=O)c3ccc(N4CCCN(C)CC4)nc3n3c2sc2ccccc23)cn1 , give its measured pEC50 value.
Result string: 5.96

* * *

Tested on: various cancer cell lines
assay_notes: Cell viability by Alamar Blue assay
Format: cell-based
measurement_conditions: SEM, Leukemia
property_name: EC50 (nM)
Respond with the bare value in nM.

Query string: // fetch EC50; item: Cc1cnc(CNC(=O)c2c(=O)c3ccc(N4CCCN(C)CC4)nc3n3c2sc2ccccc23)cn1 ; system: various cancer cell lines
Result string: 18

* * *

assay_notes: Pharmacokinetic study in patients with advanced hematologic cancers (IV infusion, LC/MS/MS)
Format: in vivo, human
measurement_conditions: human, plasma; 50 mg/m^2 (ready-to-use formulation), 1 hour IV infusion, first dose (first cycle), N 4
property_name: AUC(0-t) (ng·h/mL)
Respond with the bare value in ng·h/mL.

Query string: For the compound Cc1cnc(CNC(=O)c2c(=O)c3ccc(N4CCCN(C)CC4)nc3n3c2sc2ccccc23)cn1 , give its measured AUC(0-t) value.
Result string: 3650
